- assay-info: chemical genetic growth profiling, strain panel (AID 1159580);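 note: tested at 20 µM; growth read once vehicle control cultures reached saturation at 30 °C; 1 = growth at the plate median or of vehicle wells; lower values mean less growth of the strain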
- condition-summary: S. cerevisiae deletion strains, growth OD, locus YNL128W, strain TEP1, active compounds read low
Out of some 5,500 compounds screened, about 2,000 (36%) were called active. Roughly 18% stayed inconclusive and do not appear here. This is one part of the list.

# molecule, normalized growth
data = [
    ("CC(=O)/C(C)=N\\O", 0.983),
    ("CSc1ccc(C(=O)O)s1", 1.01),
    ("CSc1nc(N)nc(C(C)(C)C)n1", 1.02),
    ("CCC(/C=C/[C@@H](C)[C@H]1CCC2C3CC=C4C[C@@H](O)CC[C@]4(C)C3CC[C@@]21C)C(C)C (some centres undefined)", 1),
    ("CC(=O)O.CC(=O)O.[Cd]", 0.234),
    ("CC1NC(=O)NC1=O (centres undefined)", 0.975),
    ("CCC(CCC(C)[C@H]1CCC2C3CC=C4C[C@@H](O)CC[C@]4(C)C3CC[C@@]21C)C(C)C (some centres undefined)", 1.01),
    ("CCN(CCCCOC(=O)c1ccc(OC)c(OC)c1)C(C)Cc1ccc(OC)cc1 (centres undefined)", 0.968),
    ("O=C(O)/C=C(\\CC(=O)O)C(=O)O", 1),
    ("C[N+]1(CCCCC[N+]2(C)CCCC2)CCCC1", 1.01),
    ("COc1ccc(C(=O)/C=C/c2ccccc2)cc1", 0.922),
    ("Cc1ccc(C(=O)c2ccccc2[N+](=O)[O-])cc1", 1.01),
    ("COC(=O)N1CCN(C(=O)Cc2ccc(Cl)c(Cl)c2)C(CN2CCCC2)C1 (centres undefined)", 1.01),
    ("N#CC(C#N)=Cc1ccc([N+](=O)[O-])c(O)c1", 0.966),
    ("COc1cc([C@@H]2c3cc4c(cc3[C@H](OC(C)=O)[C@H]3COC(=O)[C@H]23)OCO4)cc(OC)c1OC", 0.992),
    ("CC1(C)O[C@@H]2CC3C4CCC5=CC(=O)C=C[C@]5(C)[C@@]4(F)[C@@H](O)C[C@]3(C)[C@]2(C(=O)CO)O1 (some centres undefined)", 1.02),
    ("Clc1ccc(-c2csc(-c3ccno3)n2)s1", 0.939),
    ("CN(C)CC/C=C1\\c2ccccc2COc2ccccc21", 1.01),
    ("CC(C)[C@]12O[C@H]1[C@@H]1O[C@@]13[C@@]1(C)CCC4=C(COC4=O)[C@@H]1C[C@@H]1O[C@@]13C2=O", 1.03),
    ("CN1CCN2c3ccccc3Cc3ccccc3C2C1 (centres undefined)", 1.02),
    ("Nc1ccc(C(=O)Oc2ccccc2)c(O)c1", 0.905),
    ("O=c1c2ccccc2[se]n1-c1ccccc1", 0.0628),
    ("O=C1CCc2cc(OCCCCc3nnnn3C3CCCCC3)ccc2N1", 1.01),
    ("CN(C)CC/C=C1/c2ccccc2COc2ccccc21", 1.01),
]
